# System Name: UniProtKB P05177
# Sequence (P05177 whole entry): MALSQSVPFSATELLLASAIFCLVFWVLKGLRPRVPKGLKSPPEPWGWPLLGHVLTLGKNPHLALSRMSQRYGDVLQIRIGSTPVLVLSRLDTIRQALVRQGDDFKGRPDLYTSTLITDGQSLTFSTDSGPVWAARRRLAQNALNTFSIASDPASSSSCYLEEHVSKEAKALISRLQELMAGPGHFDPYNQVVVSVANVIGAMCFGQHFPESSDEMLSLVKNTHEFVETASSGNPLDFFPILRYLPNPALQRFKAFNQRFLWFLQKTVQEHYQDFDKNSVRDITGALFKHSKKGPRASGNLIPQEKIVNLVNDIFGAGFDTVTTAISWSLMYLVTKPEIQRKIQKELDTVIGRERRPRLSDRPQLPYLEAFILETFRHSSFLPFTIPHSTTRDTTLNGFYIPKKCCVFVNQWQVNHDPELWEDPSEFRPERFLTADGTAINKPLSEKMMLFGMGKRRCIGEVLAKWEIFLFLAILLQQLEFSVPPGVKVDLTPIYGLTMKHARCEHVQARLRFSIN
Parameter: IC50 (nM)

Molecule	Parameter	Result
O=c1cc(-c2ccccc2)oc2cc(O)ccc12 [7-HYDROXYFLAVONE]	IC50	240
